Where do the numbers come from? From the nanobody polyreactivity screen of Harvey et al. (2022).

assay: yeast display, Sf9 membrane polyspecificity reagent, FACS + sequencing; frameworks hold sequencing errors
metric: polyreactivity (PSR sort gate)

[[record]]
sequencecontent = "QVQLVESGGGLVQAGRSLRLSCAASGRIFPRNVMGWYRQAPGKERELVAAISSRGTRTYYADSVKGRFTISRDNAKNSVYLQLYSLKPEDTAVYYCAADGPYEGYDYWGQGTQVTVSS"
obsvalue = "high polyreactivity"

[[record]]
sequencecontent = "QVQLVESAGGLVQAGGSLRLSCAASGRNFVDYAMGWYRQAPGKERELVAAITQRGGSTYYADSVKGRFTISRDNAKNTVYLQMNSLKPEDTAVYYCAAVTRFYTKYYWGQGTQVTVSS"
obsvalue = "high polyreactivity"

[[record]]
sequencecontent = "QVQLVESGGGLVQAGGSLRLSCASSGFTFYYNAMGWYRQAPGQERELVASITRSGGRTYYSDSVKGRFTISRDNAKNTVYLQMNSLKPEDTAVYYCARRYPGGYYWGQGTHVTVSS"
obsvalue = "high polyreactivity"


====

assay: yeast display, Sf9 membrane polyspecificity reagent, FACS + sequencing; frameworks hold sequencing errors
metric: polyreactivity (PSR sort gate)

Would you please look over these solved cases?
[[record]]
sequencecontent = "QVQLVESGGGLVQAGGSLRLSCAASGRIFYYYAMGWYRQAPGKERELVAAISSIGGSTYADSVKGRFTISRDNAKNTVYLQMNSLKPEDTAVYYCAADGFKRLYTQVAHVRYDYWGQGTQVTVSS"
metric = "polyreactivity (PSR sort gate)"
obsvalue = "low polyreactivity"

[[record]]
sequencecontent = "QVQLVESGGGLVQAGGSLRLSCAASRRIFYAYAMGWYRQAPGKEIELLATITGIGGSTYADSVKGRFTISRDNAKNTVNLQMNSLKPEDTAVYYCNAERGVYWGRYPYKYDYLGQGTQVTVSS"
metric = "polyreactivity (PSR sort gate)"
obsvalue = "low polyreactivity"

[[record]]
sequencecontent = "QVQLVESGGGLVQAGGSLRLSCAASGITFERYAIGWYRQAPGKERELVAAITSSGGSTYYADSVKGRFTISRDNAKNTVYLQMNSLKPEDTAVYYCAARNAYTPRHDYWGQGTQVTVSS"
metric = "polyreactivity (PSR sort gate)"
obsvalue = "high polyreactivity"

[[record]]
sequencecontent = "QVQLVESGGGLVQAGGSLRLSCAASGRTIRGNARGWYIQAPGKERELVAVNTASGSTTYADSVKGRFTISRDNAKNTVYLQMNSLKSEDTAVYYCAKYVPWYTLWLGGTDRDYWGQGTQVTVSS"
metric = "polyreactivity (PSR sort gate)"
obsvalue = "low polyreactivity"

[[record]]
sequencecontent = "QVQLVESGGGLVQAGGSLRLSCAASGSTIFGYALGSYRQAPGKERELVAASSSGGSTYYADSVKGRFTISRDNAKNTVYLQMNSLKPEDTAVYYCAATRRLKRYWAQGTQVTVSS"
metric = "polyreactivity (PSR sort gate)"
obsvalue = "high polyreactivity"

[[record]]
sequencecontent = "QVQLVESGGGLVQAGGSLRLSCAASGSTFGRYAMGWYREAPGKERELVAGITYGSTYYADSVKGRVTISRDNAKNTVYLPMNSLKPEDTAVYACAADLSYTSVHGYRSETLMDYWGQGTQVTVSS"
metric = "polyreactivity (PSR sort gate)"
obsvalue = "low polyreactivity"

[[record]]
sequencecontent = "QVQLVDSVRGLVQAGGSLRLSCAASGSIFNQNAMGWYRQAPGKERELVAVISSGGRTSYADSVKGRFTISRDNAKNTVYLQMNSLKPEDTAVYYCAADYGDRYWDYGYWGQGTQVTVSS"
metric = "polyreactivity (PSR sort gate)"
obsvalue = "low polyreactivity"

[[record]]
sequencecontent = "QDQLVDSGGGLVQAGGSLRLSCAASGFTFFRKAMGWYREAPGKERQLVAAITRAGSTYYADSVKGRFTISRDNAKNTVYLQMNSLKAEDTEVYYCFDLSNRYAVRYDYWGQGTQVTVSS"
metric = "polyreactivity (PSR sort gate)"
obsvalue = "high polyreactivity"


Asked: // query polyreactivity (PSR sort gate) value for entry QVQLVESGGGLVQAGGSLRLSCAASGLTFPWYAMGWYRQAPGKERELVAGISWSGGSTYYADSVKGRFTISRDNAKNTVYLQMNSLKPEDTAVYYCAARVWYYDYWGQGTQVTVSS
Given back: high polyreactivity

====

assay: yeast display, Sf9 membrane polyspecificity reagent, FACS + sequencing; frameworks hold sequencing errors
metric: polyreactivity (PSR sort gate)

Known polyreactivity (PSR sort gate) results, listed for orientation:
[[record]]
sequencecontent = "QGQLVESGGGLVQAGGSLRLSCAASGSTFTYNAMGWYRQAPGKERELVASISSGTTTYYADSVKGRFTISRDNAKNTVYLQMNSLKPEDTAVYYCAVDSWSRVQGWLAHNYDYWGQGTQVTVSS"
metric = "polyreactivity (PSR sort gate)"
obsvalue = "low polyreactivity"

[[record]]
sequencecontent = "QVQLVQTGGGLVQAGGSLRLSCAASGSTFWYNAMGWSRQAPGKERELVARISYSGGSTYYADSVKGRFTISRDNAKNTVYLQMNCLKPEDTAVEYCAGRRPYKYDYWGQGTQVTVSS"
metric = "polyreactivity (PSR sort gate)"
obsvalue = "high polyreactivity"

[[record]]
sequencecontent = "QVQLEEKRRGLVQAGGSLRLSCASSGRTFVTNAMGRYRQAPGKERELVAAISSSGGSTYYADSVKGRFTISRDNAMNTVYLQMNSLKPEDTAVYYCAVAGQTKGQYDYWGQGTQVTVSS"
metric = "polyreactivity (PSR sort gate)"
obsvalue = "low polyreactivity"

[[record]]
sequencecontent = "QVQLVESGGGLVQAGGSLRLSCAASGRIFDDYAMGWNRQAPGKERELVAAISSSVGNTYYADSVKGRFTISRDNAKYTVYLQMNSLKPEDTAVYYCADYSYVRSSYEVEYDYWGQATQVTVSS"
metric = "polyreactivity (PSR sort gate)"
obsvalue = "low polyreactivity"

[[record]]
sequencecontent = "QVQHVESGGGLVQAGGSLRLSCAASGYTFYIYPMGWYRQAPGKERELVATISSSGGGTYYADSVKGRFTISRDNAKNTVYLQMNSLKPEETAVYYCAADSWRYVAEGLWREYDYWGQRTQVTVSS"
metric = "polyreactivity (PSR sort gate)"
obsvalue = "low polyreactivity"


Shifting focus to the sequence that follows.
Asked: Endpoint output: polyreactivity (PSR sort gate) of QVQLVESGGGLVQAGGSLRLSCAASGITFFTYGMGWYRQAPGKERELVASINWSGGTYYADSVKGRFTISRDNAKNTVYLQMNSLKPEDTAVYYCAAETSNSTQEMGYWGQGTQVTVSS . Value?
Given back: low polyreactivity

====

assay: yeast display, Sf9 membrane polyspecificity reagent, FACS + sequencing; frameworks hold sequencing errors
metric: polyreactivity (PSR sort gate)

[[record]]
sequencecontent = "QVQLVESGGGLVQAGGSLRLRCAASGSTIRCYAMGWYRQAPGKERELVAAIRRGGSTYYADSVKGRFTISRDNAKNTVYLQKNSLKPEVTAVYYCAAEPGYYSRQDYRVYRLYYWGQGTQVTVSS"
obsvalue = "high polyreactivity"

[[record]]
sequencecontent = "QVQLVESGGGLVQAGGSLRLSCAASGSIFVRYAMGWYRQAPGKERELVASIRSRGDSTYYADSVKGRFTISRDNAKNTVYLQMNSLKPEDTAVYYCAVQRSYVGPRQYNYWGQGTQVTVSS"
obsvalue = "high polyreactivity"


====

assay: yeast display, Sf9 membrane polyspecificity reagent, FACS + sequencing; frameworks hold sequencing errors
metric: polyreactivity (PSR sort gate)

Some sequences with known polyreactivity (PSR sort gate) results, for comparison:
[[record]]
sequencecontent = "QVQLVESGGGIVQAGGSLRLSCAASGFIFDSYAMGWYRQAPGKERELVAAITTSGGRTYYADSVKGRFTISRDNAKNTVYLQMNSLKPEDTAVYYCAAKYTARWGFDYWGQGTQVTVSS"
obsvalue = "high polyreactivity"

[[record]]
sequencecontent = "QVQLQESCGGLVQEAGSLRLSCAASGNISPPADMGWYRQAPGKQRELVASIGTGGTTNYADSEKGRFTISRDNAKNTVYLQMNSLKPEDSAVYYCNVDIGVYAYESDYWGQGTQVTVSS"
obsvalue = "low polyreactivity"

[[record]]
sequencecontent = "QVQLVESGGGLVQAGGSLRLSCAASGRIFPVYAMGWYRQAPGNERELVAAITSGVGSTYYADSVKGRFTISRDNAKNTVYLQMNSLKPEDTAVYYCAADSSYLTYWEYDYWGQGTQVTVSS"
obsvalue = "low polyreactivity"

[[record]]
sequencecontent = "QVQLVESGGGLVHAGGSLRLSCAASGFNFIVYAMGWYRQAPGKERELVASITYSGGGTYYADSVKGRFTISRDNAKNTVYLQMNSLIPEDTAVYYCNADVSWSYSVYREYGMDYWGQGTQVTVSS"
obsvalue = "low polyreactivity"

[[record]]
sequencecontent = "QDQLVESGGGLVQAGGSLRLSCAASGLIFLYPMGGYRQAPGKERELVAAISNGGSTYYADSVKGRFTISRDNAKNTVYLQMNSLKPEDTAVYFCAAKGVRRRYRPDMYYWGQGTQVTVSS"
obsvalue = "high polyreactivity"

[[record]]
sequencecontent = "QVQLVESGGGLVQEGGSLRVSCAASGRIFANNAMAGYRQAPGKERELLAAISWSGGNTYYADSVKGRFTISRDNAKNTVYVQMNSLKPDDTAVYYCGAGSPRYSNNYVSYKGWDYSCGQGTQVTVSS"
obsvalue = "high polyreactivity"


Asked: Any idea what its polyreactivity (PSR sort gate) is? The sequence is QVQLVESGGGLVQAGGSLRLSCAASGRIFYSNAMGWYRQAPGKERELVATISTGGSTYADSVKGRFTISRDNAKNTVYLQMNSLKPEETAVYYCAVDEWRWRVGAVAYYYWGQGTQVTVSS
Given back: low polyreactivity

Asked: What does the record list as polyreactivity (PSR sort gate) for QVQLVESGGGLVQAGGSLRLSCAASGSTFYRYAMGWYRQAPGKERELVAAITWNGGSTYYADSVKGRFTISRDNAKNTVYLQMNSLKPEDTAVYYCNKVSRRDTYEYDYWGQGTQVTVSS ?
Given back: high polyreactivity

Asked: Fill in: polyreactivity (PSR sort gate) of QVQLVESGGGLVQAGGSLRLSCAASGSILWLNAMGWYRQAPGKERELVADITRGGSTYYADSVKGRFTISRDNAKNTVYLQMNSLKPEDTAVYYCAAKRGKTYQRFDYWGQGTQVTVSS is ___
Given back: high polyreactivity

Asked: Find the recorded polyreactivity (PSR sort gate) belonging to QVQLVDSGGGLVQAGGSLRLSCAASGRTIYNYDMGWYRQAPGKERELVARIFSGGSTNYADSVKGRFTISRDNAKNTVYLQMNSLKPEDTAVYYCNAVLESQFIGWKFFYWGQGTQVSVSS and report it.
Given back: high polyreactivity

Asked: Sample QVQLGESGGGLVQAGGSLRLSCAASGFPFQGNAMGWSRQAPGKERELLAAISYDGGSSYYADSVKGRFTISRDNAKNTVYLQMNSLKPEDTAVYYCAAYVVTWYYYWGQGTQVTLSS — what was its polyreactivity (PSR sort gate)?
Given back: high polyreactivity

Asked: Suppose we examine the sequence QVQLVESGGGLVQAGGSLRLSCAASGRTFTLNAMGWYRQAPGKEREFVAAISNSGVRTYYADSVKGRFTISRDNAKNTVYLQMNSLKPEDTAVYYCARTYQVGDSIDDYWGQGTQVTVSS ; what polyreactivity (PSR sort gate) value has been reported?
Given back: low polyreactivity

Asked: Endpoint output: polyreactivity (PSR sort gate) of QVQLVESGGGLVQAGGSLRLSCAASGNIFDSNAMGWYRQAPGKERELVAAITWSGGSTYYADSVKGRFTISRDNAKNTVYLQMNSLKPEDTAVYYCNAVRQQRNVPGGQYEFDYWGQGTQVTVSS . Value?
Given back: high polyreactivity

Asked: Using the record for QVQLVESGGGLVQAGGSLRLSCAASGFTFYYYAMGWYRQAPGKERELVAAINGGSSTNYADSVKGRFTISRDNAKNTVYLQMNSLKPDDTAVYYCAAETRFYRNIDKIYFVLDRVDYWGQGTQVTVSS , report its polyreactivity (PSR sort gate).
Given back: low polyreactivity

Asked: Query: polyreactivity (PSR sort gate); subject: QVQLVESGGGLVQAGGSLRVSCAASGSIFRFHVMGWYRQAPGKERELVAAITRGDSTNYADSVKGRFTIPRDNAKNTVYLHMNSLKPEATAVYYCATKTPGWGIFDYWGPGTQVTVSS
Given back: low polyreactivity

Asked: Report polyreactivity (PSR sort gate) for QVQLVESGGGLVQAGGSLRLSCAASGSILVYNAMGWYRQAPGKERELVAAISNTGRTYYAVSVKGRFTISRDIAKNTVYVQMNSLKPEDTAVYYCAAARTSTGSYRYEYWGQGTQGTVSS please.
Given back: high polyreactivity

Asked: Field request: polyreactivity (PSR sort gate) | item: QVQLVESGGGLVQAGGSLRLSCAASGNTFRWYAMGWYRQAPGKEREFVADITVRGGSTYYADSVKGRFTISRDNAKNTVYLQMNSLKPEDTAVYYCAVDFRRYPGFDYWGQGTQVTVSS
Given back: low polyreactivity

Asked: Data request, read-out polyreactivity (PSR sort gate), for QVQLVESGGGLVQAGGSLRLSCAASGIIFNSYAMGWYRQAPGKERELVAAISRSGTSTYYADSVKGRFTISRDNAKNTVYLQMNSLKPEDTAVYYCNVARGYYSYSSRIDYYWGQGTQVTVSS
Given back: high polyreactivity

Asked: For the sequence shown here, QVQLVESGGGLVQAGGSLRLSCAASGFTITYYVMGWYRQAPGKERELVAAISSGGRTYYADSVKGRFTISRDNAKNTVYLQMNSLKPEDTAVYYCARAISIYPGFGYWGQGTQVTVSS , give the reported polyreactivity (PSR sort gate).
Given back: high polyreactivity

Asked: I'd like to know its polyreactivity (PSR sort gate). The sequence in question is QVQLVESGGGLVQAGASLRLSCAASGRIFSRNTMGWSRQAPGKECEFVAAISQSGGRTYYADSVKGRFTISRDNAKNTVYLQMNSLKPEDTAVYYCNAQFARSSGFNYWGQGTQVTVSS
Given back: high polyreactivity

Asked: Could you share which polyreactivity (PSR sort gate) value was measured for QVQLVESGGGLVQAGGSLRLSCAASGRIFYINAMGWYRQAPGKERELVAAISGSGGDTYYADSVKGRFTISRDNAKNTVYLQMNSMKPEDTAVYYCGAEVYTWGQGTQVTVSS ?
Given back: low polyreactivity
